- TESTED_TARGET: G-protein coupled receptor 151 (Homo sapiens) (UniProt Q8TDV0)
- Sequence (Q8TDV0 whole entry, looked up): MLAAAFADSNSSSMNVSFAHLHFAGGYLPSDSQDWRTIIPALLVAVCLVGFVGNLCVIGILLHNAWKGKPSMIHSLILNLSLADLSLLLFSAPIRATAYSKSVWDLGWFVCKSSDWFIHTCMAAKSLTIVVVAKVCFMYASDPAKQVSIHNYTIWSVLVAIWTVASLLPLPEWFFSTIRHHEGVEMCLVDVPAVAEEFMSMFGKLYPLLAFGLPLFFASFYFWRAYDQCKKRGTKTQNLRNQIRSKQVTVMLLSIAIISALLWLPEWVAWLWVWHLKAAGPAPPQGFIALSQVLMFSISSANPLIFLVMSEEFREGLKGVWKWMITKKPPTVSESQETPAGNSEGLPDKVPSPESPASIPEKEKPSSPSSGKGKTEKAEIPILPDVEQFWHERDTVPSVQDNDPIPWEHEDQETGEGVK
- PROTOCOL_TEXT: activators of human GPR151, primary screen, cell-based, PathHunter beta-arrestin, luminescence (AID 1508602);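 note: 0% = median of compound wells and 100% = cells with positive control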
- RECORDED_CONDITIONS: PathHunter beta-arrestin GPR151 cells, at 11.2 µM
Screen size: about 650,000 compounds; about 6,800 (1%) were called active. Cut-off read from the data, not from the text of the source: active = activation above about 4.9%; inactive = the rest. For the sample, actives were picked, then their nearest neighbours and some compounds at random.
Your answer must be one of the following: active, inactive

query: Query: recorded result category for Cc1cc(C)cc(NC(=O)C(CC(C)C)NS(=O)(=O)c2ccc3c(c2)oc(=O)n3C)c1 (centres undefined) in this test
result: inactive

query: Answer briefly: the call reported for Cc1nn(-c2ccccc2)c2c1C(c1ccc(-c3ccccc3)cc1)C(C#N)=C(N)O2 (centres undefined) in this assay.
result: inactive

Further cases:
query: So what was the verdict on O=C(O)C1CCC(CNc2nc(=S)[nH]c3ccccc23)CC1 (centres undefined) in this test?
result: inactive

query: # lookup: test call for COCCNC(=O)CSc1nccn1Cc1ccco1
result: active

query: How did this test come out for Cn1c(CNc2ccc(F)cc2)c(C#N)c2ccccc21 ?
result: inactive

query: Outcome logged for Cc1nn(C)c(C)c1-c1nc2c(NCCO)ncnc2n1C(C)C in this assay:
result: inactive

query: Any idea what this test logged for CC(Nc1n[nH]c(=O)[nH]c1=O)C(=O)N/N=C/c1cccnc1 (centres undefined) ?
result: inactive

query: Please indicate how the test categorized O=C(C1CCCN1S(=O)(=O)c1ccc(Cl)cc1)N1CCCc2ccccc21 (centres undefined) .
result: inactive

query: What was the test verdict on C=CCN(c1ccc(C(=O)Nc2cc(C)cc(C)c2)cc1)S(C)(=O)=O ?
result: inactive

query: For this molecule, state the assay outcome: CC(C)NC(=O)CSc1nccn1Cc1ccco1
result: inactive

query: Which outcome was entered for the molecule O=C(Cn1c(=O)n(Cc2ccc(F)cc2)c(=O)c2cccnc21)Nc1ccccc1F in this test?
result: inactive

query: Entry NC(=O)c1nc(-c2cccc(Cl)c2)nc2c1[nH]c(=O)n2-c1ccccc1 : call = ?
result: inactive

query: What outcome does the record of this test show for C=CCN(c1ccc(C(=O)Nc2ccc(OCc3ccccc3)cc2)cc1)S(C)(=O)=O ?
result: active

---

- TESTED_TARGET: G-protein coupled receptor 151 (Homo sapiens) (UniProt Q8TDV0)
- PROTOCOL_TEXT: activators of human GPR151, primary screen, cell-based, PathHunter beta-arrestin, luminescence (AID 1508602);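 note: 0% = median of compound wells and 100% = cells with positive control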
- RECORDED_CONDITIONS: PathHunter beta-arrestin GPR151 cells, at 11.2 µM, hits give high values
Among all 650,000 compounds or so, about 6,800 (1%) were called active. This is one part of a sample in which actives are shown more often than they occur.
We begin with a simple list: items and their reported activation.
Give just the number in %; leave the unit off.

In the examples that follow, each entry is paired with its recorded activation.
query: Supply recorded activation for C=CCn1cnc2sc(C)c(-c3ccc(Cl)cc3)c2c1=O here.
result: 1.23

query: Please supply the value of reported activation for the item CCc1nnc2n1N(C(C)=O)C(c1ccc3c(c1)CCCC3)=C(C(C)=O)S2
result: 8.6

query: Please give the documented activation of CC(=O)C1=C(c2ccc(C(C)(C)C)cc2)N(C(C)=O)n2cnnc2S1
result: 0.857

Next:
query: Hello, please tell me recorded activation for this one: Cc1ccc(S(=O)(=O)c2nnn3c2nc(NCc2ccco2)c2ccccc23)cc1
result: -0.413

query: Hello, please tell me recorded activation for this one: CCSc1c(O)cnn(-c2ccccc2)c1=O
result: 0.94

query: Let me know recorded activation for Cc1cccc(CNc2nc3nc(C)cc(C)n3n2)c1 , thanks.
result: -0.819

query: Return activation for the following compound: CCOC(=O)c1c(-c2ccc([N+](=O)[O-])cc2)csc1NC(=O)c1ccccc1
result: -1.07

query: Identify measured activation corresponding to Cc1ccc(C(=O)COc2ccc(C#N)cc2)c(C)c1
result: 0.546
